- PROTOCOL_SUMMARY: Plasma and tissue concentrations of efavirenz after tail vein injection
- Assay type: in vivo, CD-1 mice
- COND: CD-1, mouse, liver, intravenous; mice, 5 mg/kg tail vein, 3 h; LLOQ 35 ng/g; read-out: Efavirenz concentration, Liver
REPORTED_PROPERTY: concentration at 3 h (ng/g)
Numbers only, in ng/g.

query: Output measured concentration at 3 h for this item: O=C1Nc2ccc(Cl)cc2[C@@](C#CC2CC2)(C(F)(F)F)O1 [Efavirenz in DMSO, efavirenz]
result: 136

----------
- PROTOCOL_SUMMARY: Plasma and tissue concentrations of efavirenz after tail vein injection
- Assay type: in vivo, CD-1 mice
- COND: CD-1, mouse, plasma, intravenous; mice, 5 mg/kg tail vein, 1 h; read-out: Efavirenz concentration, Plasma
REPORTED_PROPERTY: concentration at 1 h (ng/mL)
Numbers only, in ng/mL.

query: Given the compound O=C1Nc2ccc(Cl)cc2[C@@](C#CC2CC2)(C(F)(F)F)O1 , write its reported concentration at 1 h.
result: 1560

----------
- PROTOCOL_SUMMARY: Plasma and tissue concentrations of efavirenz after tail vein injection
- Format: in vivo, CD-1 mice
- COND: CD-1, mouse, liver, intravenous; mice, 5 mg/kg tail vein, 0.25 h; LLOQ 35 ng/g; read-out: Efavirenz concentration, Liver
REPORTED_PROPERTY: concentration at […] (ng/g)
Give bare numbers, in ng/g.

query: Identify the reported concentration at […] for the following entry. O=C1Nc2ccc(Cl)cc2[C@@](C#CC2CC2)(C(F)(F)F)O1
result: 5420

----------
- PROTOCOL_SUMMARY: Plasma and tissue concentrations of efavirenz after tail vein injection
- Format: in vivo, CD-1 mice
- COND: CD-1, mouse, plasma, intravenous; mice, 5 mg/kg tail vein, 0.083 h; read-out: Efavirenz concentration, Plasma
REPORTED_PROPERTY: concentration at 0.083 h (ng/mL)
Numbers only, in ng/mL.

query: Dear colleague, please send me the reported concentration at 0.083 h for O=C1Nc2ccc(Cl)cc2[C@@](C#CC2CC2)(C(F)(F)F)O1 when you can.
result: 4100

----------
- PROTOCOL_SUMMARY: Plasma and tissue concentrations of efavirenz after tail vein injection
- Type: in vivo, CD-1 mice
- COND: CD-1, mouse, liver, intravenous; mice, 5 mg/kg tail vein, 0.083 h; LLOQ 35 ng/g; read-out: Efavirenz concentration, Liver
REPORTED_PROPERTY: concentration at 0.083 h (ng/g)
One number for each entry, in ng/g.

query: Give concentration at 0.083 h for O=C1Nc2ccc(Cl)cc2[C@@](C#CC2CC2)(C(F)(F)F)O1
result: 7590

----------
- PROTOCOL_SUMMARY: Plasma and tissue concentrations of efavirenz after tail vein injection
- Assay type: in vivo, CD-1 mice
- COND: CD-1, mouse, lung, intravenous; mice, 5 mg/kg tail vein, 0.5 h; LLOQ 35 ng/g; read-out: Efavirenz concentration, Lungs
REPORTED_PROPERTY: concentration at 0.5 h (ng/g)
One number for each entry, in ng/g.

query: Provide measured concentration at 0.5 h value, entry: O=C1Nc2ccc(Cl)cc2[C@@](C#CC2CC2)(C(F)(F)F)O1 [Efavirenz in DMSO, efavirenz]
result: 830

----------
- PROTOCOL_SUMMARY: Plasma and tissue concentrations of efavirenz after tail vein injection
- Type: in vivo, CD-1 mice
- COND: CD-1, mouse, liver, intravenous; mice, 5 mg/kg tail vein, 6 h; LLOQ 35 ng/g; read-out: Efavirenz concentration, Liver
REPORTED_PROPERTY: concentration at 6 h (ng/g)
Numbers only, in ng/g.

query: Give the value of concentration at 6 h reported for the following: O=C1Nc2ccc(Cl)cc2[C@@](C#CC2CC2)(C(F)(F)F)O1
result: 115

----------
- PROTOCOL_SUMMARY: Plasma and tissue concentrations of efavirenz after tail vein injection
- Format: in vivo, CD-1 mice
- COND: CD-1, mouse, plasma, intravenous; mice, 5 mg/kg tail vein; read-out: area under the plasma-time concentration curve (AUC0-8h) of efavirenz
REPORTED_PROPERTY: AUC(0-t)
# include the unit after the value

query: Return the recorded AUC(0-t) value; entry: O=C1Nc2ccc(Cl)cc2[C@@](C#CC2CC2)(C(F)(F)F)O1
result: 4520 ng·h/mL

----------
- PROTOCOL_SUMMARY: Plasma and tissue concentrations of efavirenz after tail vein injection
- Type: in vivo, CD-1 mice
- COND: CD-1, mouse, plasma, intravenous; mice, 5 mg/kg tail vein, 4 h; read-out: Efavirenz concentration, Plasma
REPORTED_PROPERTY: concentration at 4 h (ng/mL)
Give bare numbers, in ng/mL.

query: Hello, please tell me recorded concentration at 4 h for this one: O=C1Nc2ccc(Cl)cc2[C@@](C#CC2CC2)(C(F)(F)F)O1
result: 103

----------
- PROTOCOL_SUMMARY: Plasma and tissue concentrations of efavirenz after tail vein injection
- Format: in vivo, CD-1 mice
- COND: CD-1, mouse, liver, intravenous; mice, 5 mg/kg tail vein, 4 h; LLOQ 35 ng/g; read-out: Efavirenz concentration, Liver
REPORTED_PROPERTY: concentration at 4 h (ng/g)
One number for each entry, in ng/g.

query: Supply reported concentration at 4 h belonging to this molecule: O=C1Nc2ccc(Cl)cc2[C@@](C#CC2CC2)(C(F)(F)F)O1 [Efavirenz in DMSO, efavirenz]
result: 137

----------
- PROTOCOL_SUMMARY: Plasma and tissue concentrations of efavirenz after tail vein injection
- Format: in vivo, CD-1 mice
- COND: CD-1, mouse, liver, intravenous; mice, 5 mg/kg tail vein, 2 h; LLOQ 35 ng/g; read-out: Efavirenz concentration, Liver
REPORTED_PROPERTY: concentration at 2 h (ng/g)
One number for each entry, in ng/g.

query: Read off the recorded concentration at 2 h for O=C1Nc2ccc(Cl)cc2[C@@](C#CC2CC2)(C(F)(F)F)O1 [Efavirenz in DMSO, efavirenz]
result: 135

----------
- PROTOCOL_SUMMARY: Plasma and tissue concentrations of efavirenz after tail vein injection
- Format: in vivo, CD-1 mice
- COND: CD-1, mouse, plasma, intravenous; mice, 5 mg/kg tail vein, 2 h; read-out: Efavirenz concentration, Plasma
- Procedure: The efavirenz-loaded apical AVT-EVs were subsequently injected via tail vein into CD-1 mice at a dose of 5 mg/kg and compared to a control injection of 5 mg/kg of conventional efavirenz (dissolved with DMSO). Plasma and tissue concentrations were determined by LC-MS/MS.
REPORTED_PROPERTY: concentration at 2 h (ng/mL)
Numbers only, in ng/mL.

query: Identify the reported concentration at 2 h for the following entry. O=C1Nc2ccc(Cl)cc2[C@@](C#CC2CC2)(C(F)(F)F)O1
result: 724

----------
- PROTOCOL_SUMMARY: Plasma and tissue concentrations of efavirenz after tail vein injection
- Type: in vivo, CD-1 mice
- COND: CD-1, mouse, plasma, intravenous; mice, 5 mg/kg tail vein, 3 h; read-out: Efavirenz concentration, Plasma
REPORTED_PROPERTY: concentration at 3 h (ng/mL)
Give bare numbers, in ng/mL.

query: Fill in reported concentration at 3 h for this entry: O=C1Nc2ccc(Cl)cc2[C@@](C#CC2CC2)(C(F)(F)F)O1
result: 396

----------
- PROTOCOL_SUMMARY: Plasma and tissue concentrations of efavirenz after tail vein injection
- Format: in vivo, CD-1 mice
- COND: CD-1, mouse, lung, intravenous; mice, 5 mg/kg tail vein, 1 h; LLOQ 35 ng/g; read-out: Efavirenz concentration, Lungs
REPORTED_PROPERTY: concentration at 1 h (ng/g)
Numbers only, in ng/g.

query: Find the measured concentration at 1 h of O=C1Nc2ccc(Cl)cc2[C@@](C#CC2CC2)(C(F)(F)F)O1 and report it.
result: 273

----------
- PROTOCOL_SUMMARY: Plasma and tissue concentrations of efavirenz after tail vein injection
- Assay type: in vivo, CD-1 mice
- COND: CD-1, mouse, plasma, intravenous; mice, 5 mg/kg tail vein, 6 h; read-out: Efavirenz concentration, Plasma
REPORTED_PROPERTY: concentration at 6 h (ng/mL)
Answers are plain numbers, in ng/mL.

query: Look up and state reported concentration at 6 h for O=C1Nc2ccc(Cl)cc2[C@@](C#CC2CC2)(C(F)(F)F)O1
result: 64.4

meta.source: patent US12691076B2
